molecular target: Neutrophil elastase (Homo sapiens, UniProt P08246); test: Inhibitory constant for human neutrophil elastase
Sequence (P08246 whole entry): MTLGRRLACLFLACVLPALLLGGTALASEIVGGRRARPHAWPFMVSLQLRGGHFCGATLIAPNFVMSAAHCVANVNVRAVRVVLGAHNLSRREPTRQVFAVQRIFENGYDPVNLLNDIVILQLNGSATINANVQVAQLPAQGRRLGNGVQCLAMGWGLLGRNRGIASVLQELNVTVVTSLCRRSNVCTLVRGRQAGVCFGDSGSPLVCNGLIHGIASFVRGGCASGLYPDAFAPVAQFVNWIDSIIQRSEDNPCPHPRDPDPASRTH
ASSAY_ENDPOINT: Ki (µM)
Report the figure in µM without appending any unit label.

[Q] Look up Ki for this compound: `CC[C@@H](C)[C@H](NCc1ccccc1)C(=O)N[C@@H](CCCCNC(=O)C12CC3CC(CC(C3)C1)C2)C(=O)N[C@@H](CS)C(=O)N[C@H](C(=O)O)C(C)C`
[A] 270

Data credit: ChEMBL document CHEMBL1132529
